- TARGET UNDER TEST: human α-glucosidase GAA (Homo sapiens)
- TEST: In vitro apparent IC50, recombinant GAA
REPORTED PROPERTY: pIC50
Would you please state pIC50, meaning minus log10 of the concentration in mol/L, as a bare number?

Request: Form entry - test system: human α-glucosidase GAA (Homo sapiens); read-out: pIC50; compound: O=S1(=O)O[C@@H]2[C@H](O)[C@@H](O)[C@H](O)[C@@H](CO)[C@@H]2O1 [Compound 5, 1,6-epi-cyclophellitol cyclosulfate]
Response: 7.09

----------
- TARGET UNDER TEST: human α-glucosidase GAA (Homo sapiens, UniProt P10253)
- TEST: Inhibition kinetics, recombinant GAA, 2,4-DNP-α-Glc
REPORTED PROPERTY: Ki

Request: Short answer please: Ki, human α-glucosidase GAA (Homo sapiens, UniProt P10253), entry OC[C@@H]1[C@@H](O)[C@H](O)[C@@H](O)[C@@H]2O[C@H]12 [Compound 1, cyclophellitol, reference compound]
Response: > 500 µM

----------
- TARGET UNDER TEST: human β-glucosidase GBA1 (Homo sapiens, UniProt P04062, R534H)
- Sequence (P04062 40-536 R534H): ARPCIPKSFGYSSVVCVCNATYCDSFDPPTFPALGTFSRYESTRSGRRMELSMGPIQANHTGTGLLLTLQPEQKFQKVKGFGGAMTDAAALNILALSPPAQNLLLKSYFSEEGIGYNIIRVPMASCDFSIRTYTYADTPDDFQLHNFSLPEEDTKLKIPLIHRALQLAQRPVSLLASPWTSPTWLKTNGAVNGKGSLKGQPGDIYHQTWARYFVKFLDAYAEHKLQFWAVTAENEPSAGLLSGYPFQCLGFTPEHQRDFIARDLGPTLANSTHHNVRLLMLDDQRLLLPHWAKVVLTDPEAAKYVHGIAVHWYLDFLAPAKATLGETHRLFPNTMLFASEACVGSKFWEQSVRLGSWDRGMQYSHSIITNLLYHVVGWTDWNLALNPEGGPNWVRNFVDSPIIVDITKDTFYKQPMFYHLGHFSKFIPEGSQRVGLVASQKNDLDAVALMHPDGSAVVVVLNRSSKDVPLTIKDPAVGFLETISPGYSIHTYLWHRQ
- TEST: In vitro apparent IC50, recombinant GBA1
REPORTED PROPERTY: IC50 (nM)
Your answer should be a plain number; it is taken to be in nM.

Request: # lookup: IC50 of OC[C@@H]1[C@@H](O)[C@H](O)[C@@H](O)[C@@H]2O[C@H]12 [Compound 1, cyclophellitol, reference compound]
Response: 165
